Tested on: KM12 colon
Experiment: NCI-60 one-dose screen, 48 h (100 = growth as untreated, 0 = no growth, -100 = all killed)
Conditions: 10 µM unless noted
This is part of a sample that, as a whole, favours compounds with a hit. Of some 83,000 tested, about 20% had one in any assay.
MEASUREMENT_LABEL: growth (%)
Give bare numbers, in %.

Below, 3 compounds whose answers are already recorded.
>  <COMPOUND>
COC[C@]12CCC(C)(C)C[C@H]1C1=CC[C@@H]3[C@@]4(C)CCCNC(C)(C)[C@@H]4CC[C@@]3(C)[C@]1(C)CC2

>  <OBSERVED_VALUE>
-25.6

$$$$
>  <COMPOUND>
C=C(C=O)[C@@H]1CC[C@]2(COC(C)=O)CC[C@]3(C)C(CC[C@@H]4[C@@]5(C)CC[C@H](OC(C)=O)C(C)(C)[C@@H]5CC[C@]43C)[C@@H]12 (stereo partly specified)

>  <OBSERVED_VALUE>
-40.8

$$$$
>  <COMPOUND>
O=C(CN1CCN(c2cc(=O)[nH]c3ccc(F)cc23)CC1)Nc1ccc(Cl)cc1

>  <OBSERVED_VALUE>
91.6

$$$$

Provide each entry's growth from the list below.
1. Cc1cccc2c3c(sc12)C(c1ccc(F)cc1)C(C#N)=C(/N=C/c1ccc(Cl)cc1)O3 (stereo unspecified)
2. O=C(c1ccc(Cl)cc1)C1[C@H](c2ccc(Cl)cc2)[C@@H](c2ccccc2)NC12C(=O)Nc1ccccc12 (stereo partly specified)
3. Clc1ccc(N/N=c2/oc3ccccc3cc2-c2cc3ccccc3[nH]2)cc1

[reply]
[15.7, 30.7, 58.1]

====

Would you mind telling me the reported growth of each entry?
Test system: MCF7 breast
Test: NCI-60 one-dose screen, 48 h (100 = growth as untreated, 0 = no growth, -100 = all killed)
Details: 10 µM unless noted
Compounds without any hit were thinned out: in the full panel of roughly 83,000, 20% have a hit.
One number for each entry, in %.

The following compounds have reported results that may help.
>  <COMPOUND>
c1ccc(C(c2nc3ncncc3[nH]2)N2CSc3nc4ncncc4n3C2)cc1 (stereo not drawn)

>  <TEST_SYSTEM>
MCF7 breast

>  <UNIT_SYMBOL>
%

>  <growth>
14.2

$$$$
>  <COMPOUND>
Cc1ccc(-c2nnc(SCc3ccc(O)c4ncccc34)n2-c2ccccc2)cc1

>  <TEST_SYSTEM>
MCF7 breast

>  <UNIT_SYMBOL>
%

>  <growth>
4.47

$$$$
>  <COMPOUND>
N#Cc1ccccc1Cn1c2nc(=N)c3ccccc3c-2nc2ccccc21

>  <TEST_SYSTEM>
MCF7 breast

>  <UNIT_SYMBOL>
%

>  <growth>
34.7

$$$$
>  <COMPOUND>
O=C(CSc1nc2ccccc2c(=O)n1-c1ccccc1)Nc1ccc(-c2nc3ccc([N+](=O)[O-])cc3[nH]2)cc1

>  <TEST_SYSTEM>
MCF7 breast

>  <UNIT_SYMBOL>
%

>  <growth>
40.6

$$$$
>  <COMPOUND>
Cn1ccnc1C(=O)/C=C/c1ccc(CNC(=O)c2ccc(F)cc2)cc1

>  <TEST_SYSTEM>
MCF7 breast

>  <UNIT_SYMBOL>
%

>  <growth>
11.6

$$$$
>  <COMPOUND>
O=C(NCc1ncc[nH]1)c1ccc(-c2nc3ccc4[nH]ncc4c3c3c2CCCC3)cc1

>  <TEST_SYSTEM>
MCF7 breast

>  <UNIT_SYMBOL>
%

>  <growth>
1.62

$$$$
>  <COMPOUND>
CCOC(=O)c1c(N)c(C#N)cn1-c1cc(OC)c(OC)c(OC)c1

>  <TEST_SYSTEM>
MCF7 breast

>  <UNIT_SYMBOL>
%

>  <growth>
91.1

$$$$

Here is the next item to consider.
[ask] Given the compound C[C@@H]1C[C@H]2C(=O)O[C@@H](C)C(NC(=O)[C@H](Cc3cc(F)cc(F)c3)NC(=O)Nc3ccc(C4CC4)cc3F)C(=O)N3CCC[C@H]3C(=O)N3CCCC[C@H]3C(=O)N[C@@H](CO)C(=O)N2C1 (stereo partly drawn) , write its reported growth.
[reply] 16.1

====

Tested on: HT29 colon
Assay: NCI-60 one-dose screen, 48 h (100 = growth as untreated, 0 = no growth, -100 = all killed)
Settings: 10 µM unless noted
About 83,000 compounds went through this panel and 20% of them were active in at least one assay; those are over-represented in the sample as a whole.
growth strictly under 80% means condition met; at 80% or over means condition not met.

>  <COMPOUND>
Nc1nc(Nc2ccccc2SSc2ccccc2Nc2nc(N)nc(-c3ccccc3)n2)nc(-c2ccccc2)n1

>  <CLASSIFICATION>
condition not met

$$$$
>  <COMPOUND>
COc1ccccc1NC1=C(Cl)C(=O)c2nc(C)ccc2C1=O

>  <CLASSIFICATION>
condition met

$$$$
>  <COMPOUND>
CCC(CC)N1C(=O)/C(=c2\sc3n(c2=O)NC2C(N=3)N(CC)C(=O)N2CC)c2ccccc21 (stereo not given)

>  <CLASSIFICATION>
condition met

$$$$
>  <COMPOUND>
Cc1cc2nc(C(Cl)Cl)nc(-c3cccs3)n2n1

>  <CLASSIFICATION>
condition met

$$$$

Kindly consider the entry below.
[ask] API: query returns whether the compound falls strictly under 80% in growth. Query: COC(=O)C(Cc1ccccc1)Nc1nc(NC(Cc2ccccc2)C(=O)OC)nc(N2CCOCC2)n1 (stereo not given)
[reply] condition not met

====

System: NCI-H226 lung
Experiment: NCI-60 one-dose screen, 48 h (100 = growth as untreated, 0 = no growth, -100 = all killed)
Details: 10 µM unless noted
About 83,000 compounds went through this panel and 20% of them were active in at least one assay; those are over-represented in the sample as a whole.
growth below 70% gives rule not met; growth at or above it gives rule met.

Some solved cases for reference:
>  <MOLECULE>
CNCc1cccc2c1OCCCCCCC(C)(O)CC(C)(C)S(=O)(=O)c1ccc(cc1)-c1cnc(N)c(n1)C(=O)N2 (stereo not given)

>  <TEST_SYSTEM>
NCI-H226 lung

>  <CLASSIFICATION>
rule not met

$$$$
>  <MOLECULE>
Cc1cc(C)c(N2C(=O)CC(Nc3ccc(Cl)cc3Cl)C2=O)c(C)c1 (stereo not given)

>  <TEST_SYSTEM>
NCI-H226 lung

>  <CLASSIFICATION>
rule met

$$$$
>  <MOLECULE>
COc1ccc(C(=O)Nc2ncc(Cc3ccccc3Cl)s2)cc1

>  <TEST_SYSTEM>
NCI-H226 lung

>  <CLASSIFICATION>
rule not met

$$$$
>  <MOLECULE>
CNC(=O)c1c(NC(=O)c2cccc(C(F)(F)F)c2F)sc2c1CCC(=O)C2

>  <TEST_SYSTEM>
NCI-H226 lung

>  <CLASSIFICATION>
rule not met

$$$$

[ask] Does the molecule Cc1c(Cl)cccc1S(=O)(=O)Nc1ccc2c(c1)C(=O)N(C1CCC(=O)NC1=O)C2=O (stereo not given) have recorded growth that is 70% or more?
[reply] rule not met

====

Test system: IGROV1 ovarian
Assay: NCI-60 one-dose screen, 48 h (100 = growth as untreated, 0 = no growth, -100 = all killed)
Conditions: 10 µM unless noted
This is part of a sample that, as a whole, favours compounds with a hit. Of some 83,000 tested, about 20% had one in any assay.
Sorting guide: entries reporting growth beneath 70% go in the MET pile, the rest go in the NOT MET pile.

>  <COMPOUND>
CCCSc1nc(Nc2ccc(/C(C)=N\NC(N)=S)cc2)c(C#N)c(-c2ccccc2)n1

>  <CLASSIFICATION>
NOT MET

$$$$

[ask] Is it true that growth reported for N#Cc1ccccc1Cn1c2nc(=N)c3ccccc3c-2nc2ccccc21 is less than 70%?
[reply] MET

[ask] Would you kindly verify if growth of Cc1nn(-c2ccccc2)c2ncnc(N/N=C/c3ccccc3)c12 is strictly less than 70%?
[reply] NOT MET

[ask] Dear reviewer, please state whether O=C(NCc1ncc[nH]1)c1ccc(-c2nc3ccc4[nH]ncc4c3c3c2CCCC3)cc1 has growth strictly beneath 70%.
[reply] MET

====

Would you mind telling me the reported growth of each entry?
Test system: MDA-MB-231 breast
Experiment: NCI-60 one-dose screen, 48 h (100 = growth as untreated, 0 = no growth, -100 = all killed)
Conditions: 10 µM unless noted
Compounds without any hit were thinned out: in the full panel of roughly 83,000, 20% have a hit.
Numbers only, in %.

# count of solved cases: 3
>  <ITEM_SMILES>
Cn1cc(-c2cc(N)n3nc(-c4cn(C)c5ccccc45)cc3n2)c2ccccc21

>  <growth / %>
76.4

$$$$
>  <ITEM_SMILES>
COc1ccc(-n2c(/C=C3\C(=O)Nc4ccccc43)ccc2CO)cc1

>  <growth / %>
95

$$$$
>  <ITEM_SMILES>
Cc1ccc(C2=Nn3c(nnc3-c3ccccc3)SC2)cc1

>  <growth / %>
51.4

$$$$

Dear reader, for each entry below, please note its growth.
1. CC1(C)CC[C@]2(C(=O)N3CCOCC3)CC[C@]3(C)C(=CC[C@@H]4[C@@]5(C)C/C(=C/c6ccccn6)C(=O)C(C)(C)[C@@H]5CC[C@]43C)[C@@H]2C1
2. C#Cc1nc(C(=O)NCCC(=O)Nc2ccc(NC(=O)c3ccc(/C=C/C(=O)c4nccn4C)cc3)cc2)cs1
3. CC/C(=C/c1cc(OC)ccc1O)c1ccc2cc(OC)ccc2[o+]1

[reply]
1: 55.2; 2: 5.11; 3: 66.2

// each molecule listed below needs its growth
1. C/C(=N\O)[C@H]1C[C@]23CC[C@]4(C)[C@H](CC[C@@H]5[C@@]6(C)CC/C(=N/O)C(C)(C)[C@@H]6CC[C@]54C)[C@H]2[C@H](C)C1(C)OC3
2. COc1cc2oc(-c3cccc(N)c3)cc(=O)c2c(OC)c1OC

[reply]
1: 99; 2: 100
